TACE (Homo sapiens (Human)): reported IC50 for various compounds.
Sequence (P78536 215-824): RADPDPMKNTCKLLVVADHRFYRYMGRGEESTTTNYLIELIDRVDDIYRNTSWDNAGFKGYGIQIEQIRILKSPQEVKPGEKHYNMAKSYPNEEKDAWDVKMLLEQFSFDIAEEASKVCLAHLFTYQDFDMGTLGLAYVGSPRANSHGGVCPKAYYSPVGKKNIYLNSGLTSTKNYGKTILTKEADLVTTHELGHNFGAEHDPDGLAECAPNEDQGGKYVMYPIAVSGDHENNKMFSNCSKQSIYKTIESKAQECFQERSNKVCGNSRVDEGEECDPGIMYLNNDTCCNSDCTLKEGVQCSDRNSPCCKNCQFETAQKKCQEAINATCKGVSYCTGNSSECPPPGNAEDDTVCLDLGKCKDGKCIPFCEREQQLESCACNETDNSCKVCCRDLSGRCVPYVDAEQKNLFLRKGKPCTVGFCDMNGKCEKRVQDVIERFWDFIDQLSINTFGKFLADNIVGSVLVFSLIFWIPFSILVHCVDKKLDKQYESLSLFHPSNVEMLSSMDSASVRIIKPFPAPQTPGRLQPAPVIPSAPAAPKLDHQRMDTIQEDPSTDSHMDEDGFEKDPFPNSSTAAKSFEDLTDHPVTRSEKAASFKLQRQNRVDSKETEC

compound: Cc1cccn(CC2(c3ccc(Sc4ccccc4)c(F)c3)NC(=O)NC2=O)c1=O (centres unmarked)
IC50: < 100 nM

compound: COc1cc(C)c(Cl)cc1C1(Cn2cccc(C)c2=O)NC(=O)NC1=O (centres unmarked)
IC50: 100 to 1000 nM

compound: Cc1cccn(CC2(c3ccc(Sc4ccccc4)cc3)NC(=O)NC2=O)c1=O (centres unmarked)
IC50: < 100 nM

compound: Cc1cc(C2(Cn3cccc(C)c3=O)NC(=O)NC2=O)ccc1OC1CCCC1 (centres unmarked)
IC50: < 100 nM

compound: Cc1cccn(CC2(c3ccsc3)NC(=O)NC2=O)c1=O (centres unmarked)
IC50: < 100 nM
